- procedure-text: Solubility of the mono-hydrochloride salt in water and buffer solutions
- Type: physicochemical
- setup-conditions: buffer solution pH 6.8, pH 6.8, aqueous buffer, thermodynamic from solid, Buffer pH 6.8; read-out: Mean solubility

| compound | unit-string | solubility |
| --- | --- | --- |
| CCCC(CCC)C(=O)Nc1ccn([C@@H]2O[C@H](CO)[C@@H](OC(=O)[C@@H](N)C(C)C)C2(F)F)c(=O)n1.Cl [LR-06-B.HCl] | mg/mL | 275 |

###

- procedure-text: Solubility of the mono-hydrochloride salt in water and buffer solutions
- Type: physicochemical
- setup-conditions: buffer solution pH 4.5, pH 4.5, aqueous buffer, thermodynamic from solid, Buffer pH 4.5; read-out: Mean solubility

| compound | solubility / mg/mL |
| --- | --- |
| CCCC(CCC)C(=O)Nc1ccn([C@@H]2O[C@H](CO)[C@@H](OC(=O)[C@@H](N)C(C)C)C2(F)F)c(=O)n1.Cl [LR-06-B.HCl] | 227 |
